# System under test: eOD-GT8 (engineered outer domain germline-targeting version 8), monomer (HIV-1 gp120 engineered outer domain, …)

{"columns": ["Binder", "binding result"],
 "data": [
  ["G001_gp1_V08_VRC01c_2021-0062 (antibody, V domains shown) VH: QVQLVQSGAEVKKPGASVKVSCKASGYTFTGYYIHWVRQAPGQGLEWMGWINPNSGGTNYAQEFQDWVTMTRDTSISTAYMELSRLSSDDTAVFYCARAKYYDAWSGYYFDFWGQGTLVTVSS VL: DIQMTQAPSTLSASVGDRVTITCRASETTSSWVAWYQQKPGKAPKVLIYDASSLQSGVPSRFSGSGSGTEFTLTISSLQPDDFATYYCQQYNTFGGGTKVEIK", "binds"],
  ["G001_LD_V07A_VRC01c_46 (antibody, V domains shown) VH: QVQLVQSGAEVKKPGASVKVSCKASGYTFTDYYMHWVRQAPGQGLEWMGWINPNSGGTNYAQKFQGWVTMTRDTSISTAYMELTRLRSDDTAVYYCAVRKNGGDCSFCFGYWGQGTLVTVSS VL: QSVLTQPPSVSGAPGQRVTISCTGSSSNIGAGYDVHWYQQLPGTAPKLLIYGNNNRPSGVPDRFSGSKSGTSASLAITGLQAEDEADYYCQSYEMFGGGTKLTVL", "binds"]
]}

Ref: paper PMC12377726
